Biological target: Xanthine dehydrogenase/oxidase (Bos taurus)
Assay: Inhibition of bovine xanthine oxidase assessed as reduction in uric acid formation at 10 uM preincubated for 5 mins followed by xanthine addition and measured after 20 mins by spectrophotometry
Settings: cattle
quantity.measured: inhibition at 10 µM

molecule | system.tested | quantity.measured | result
CC(C)CCOc1ccc(-c2cc(C(=O)O)c(=O)[nH]n2)cc1C#N | Xanthine dehydrogenase/oxidase (Bos taurus) | inhibition at 10 µM | < 50%
NNC(=O)c1cc(-c2ccccc2)n[nH]c1=O | Xanthine dehydrogenase/oxidase (Bos taurus) | inhibition at 10 µM | < 50%
CC(C)COc1ccc(-c2cc(C(=O)NN)c(=O)[nH]n2)cc1 | Xanthine dehydrogenase/oxidase (Bos taurus) | inhibition at 10 µM | < 50%

----------
Target: Xanthine dehydrogenase/oxidase (Bos taurus, UniProt P80457)
Sequence (P80457 whole entry): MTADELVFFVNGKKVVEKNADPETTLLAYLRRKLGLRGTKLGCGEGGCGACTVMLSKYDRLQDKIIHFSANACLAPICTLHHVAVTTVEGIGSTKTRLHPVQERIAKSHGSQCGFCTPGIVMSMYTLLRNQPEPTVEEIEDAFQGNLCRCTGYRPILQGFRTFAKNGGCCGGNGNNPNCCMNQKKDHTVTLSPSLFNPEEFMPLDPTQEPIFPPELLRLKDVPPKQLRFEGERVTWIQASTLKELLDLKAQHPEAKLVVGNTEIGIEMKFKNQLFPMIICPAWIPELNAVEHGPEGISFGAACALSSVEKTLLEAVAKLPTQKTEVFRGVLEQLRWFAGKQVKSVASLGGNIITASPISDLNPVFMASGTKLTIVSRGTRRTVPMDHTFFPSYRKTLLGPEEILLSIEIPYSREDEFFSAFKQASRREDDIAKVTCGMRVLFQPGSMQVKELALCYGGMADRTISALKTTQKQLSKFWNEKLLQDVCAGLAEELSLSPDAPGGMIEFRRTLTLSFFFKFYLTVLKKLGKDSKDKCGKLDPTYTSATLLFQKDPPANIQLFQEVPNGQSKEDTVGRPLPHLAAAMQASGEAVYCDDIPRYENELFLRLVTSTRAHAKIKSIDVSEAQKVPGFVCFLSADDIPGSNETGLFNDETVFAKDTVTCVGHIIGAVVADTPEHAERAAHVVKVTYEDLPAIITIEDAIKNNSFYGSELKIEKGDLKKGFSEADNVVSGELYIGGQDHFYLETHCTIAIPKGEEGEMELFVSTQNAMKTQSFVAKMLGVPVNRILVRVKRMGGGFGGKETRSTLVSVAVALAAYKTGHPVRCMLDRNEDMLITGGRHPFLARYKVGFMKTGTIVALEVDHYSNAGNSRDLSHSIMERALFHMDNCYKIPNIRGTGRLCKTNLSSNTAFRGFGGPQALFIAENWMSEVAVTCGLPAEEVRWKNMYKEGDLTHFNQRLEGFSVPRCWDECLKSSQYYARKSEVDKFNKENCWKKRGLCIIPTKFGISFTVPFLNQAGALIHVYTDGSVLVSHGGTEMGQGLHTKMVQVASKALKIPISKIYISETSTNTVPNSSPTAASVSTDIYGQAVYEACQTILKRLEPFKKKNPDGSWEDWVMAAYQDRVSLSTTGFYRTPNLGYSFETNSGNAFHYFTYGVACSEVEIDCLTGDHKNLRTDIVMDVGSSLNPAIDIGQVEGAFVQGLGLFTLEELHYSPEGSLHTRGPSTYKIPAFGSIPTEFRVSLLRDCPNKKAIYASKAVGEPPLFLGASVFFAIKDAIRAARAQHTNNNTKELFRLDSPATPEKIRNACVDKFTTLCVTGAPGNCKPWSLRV
Assay: Inhibition of bovine xanthine oxidase assessed as reduction in uric acid formation preincubated for 5 mins followed by xanthine addition and measured after 20 mins by spectrophotometry
Conditions: read-out: IC50
pIC50: −log10 of the molar value.
Below, each entry is listed with its recorded pIC50.

molecule | pIC50
CC(C)Oc1ccc(-c2cc(C(=O)NN)c(=O)[nH]n2)cc1C#N | 5.99
CC(C)CCOc1ccc(-c2cc(C(=O)NN)c(=O)[nH]n2)cc1[N+](=O)[O-] | 5.22
CC(C)Oc1ccc(-c2cc(C(=O)NN)c(=O)[nH]n2)cc1[N+](=O)[O-] | 5.72
CCCCCOc1ccc(-c2cc(C(=O)NN)c(=O)[nH]n2)cc1C#N | 5.23
CC(C)COc1ccc(-c2cc(C(=O)NN)c(=O)[nH]n2)cc1[N+](=O)[O-] | 5.44
CC(C)CCOc1ccc(-c2cc(C(=O)NN)c(=O)[nH]n2)cc1C#N | 5.35
CCOc1ccc(-c2cc(C(=O)NN)c(=O)[nH]n2)cc1C#N | 5.60
CCCCOc1ccc(-c2cc(C(=O)NN)c(=O)[nH]n2)cc1C#N | 5.28
CC(C)COc1ccc(-c2cc(C(=O)NN)c(=O)[nH]n2)cc1C#N | 5.53
CCCOc1ccc(-c2cc(C(=O)NN)c(=O)[nH]n2)cc1C#N | 5.51
